# Tested on: Chordin-like protein 2 (CHRDL2)
# TEST: compounds binding chordin-like 2 – biochemical, small-molecule microarray, 635 nm fluorescence, primary screen (AID 1126);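 note: printed compound slides probed with Chrdl2 protein at 4 µg/mL for 1 h at 4 C; score merges 667 nm emission intensity with signal to noise over three replicate slides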
# RUN_CONDITIONS: fluorescence 635 nm, higher = more signal
READOUT_KIND: composite z-score

// worked examples, composite z-score included
C=C(C(=O)CC[C@@H](OC(=O)c1cccnc1)c1ccc(CO)o1)C(C)C	0.584
C[N+](C)(C)CCCC[C@@H]1NC(=O)[C@@H]2C[C@H](C(=O)NCCCCCCNC(=O)CS)[C@H](c3cccc(OCCO)c3)N2C1=O	0.393
COc1ccc([Si](C)(C)[C@H]2[C@H](CCO)O[C@@]3(C(=O)N(Cc4cccc(N5C(=O)c6cccc7cccc5c67)c4)c4ccccc43)[C@@H]2C)cc1	-0.27
COCCOC(=O)N1C(=O)[C@@]2(c3cc(C#CCC(C(=O)OC)C(=O)OC)ccc31)[C@H](c1ccccc1OCCO)N1[C@H](c3ccccc3)[C@H](c3ccccc3)OC(=O)[C@H]1[C@@H]2C(=O)Nc1nc2ccccc2s1	0.554
O=C1C2C=CC(C(O)c3ccccn3)N(Nc3ccccc3F)C2C(=O)N1c1ccccc1 (stereo not drawn)	0.194
CCCNC(=O)[C@@]1(C)c2ccccc2C(=O)N(C(C)C)[C@H]1c1ccc(CO)cc1	-0.95

Enquiry: Quick check: composite z-score of `C=C(/C(=C/C[C@@H](OC(=O)c1ccncc1)c1ccc(CO)o1)c1cc(C(=O)OC)ccc1OC)C(C)C` ?
Return: 0.737

Enquiry: Quick check: composite z-score of `CO[C@H]1O[C@H](CO)[C@@H](OC(=O)Nc2ccc(C(F)(F)F)cc2)[C@H](OC(=O)Nc2ccccc2)[C@@H]1OC(=O)Nc1ccccc1` ?
Return: -0.28

====

# Tested on: PRMT1 (protein arginine N-methyltransferase 1)
# TEST: small molecules binding arginine methyltransferase PRMT1 – biochemical, small-molecule microarray, 635 nm fluorescence, primary screen (AID 1088);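 note: binding of Prmt1 protein to compounds spotted on small-molecule microarray slides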
# RUN_CONDITIONS: higher = more signal
Measured composite z-score values are reported for all entries that follow.
Lab note: jot down the number only; don't add units.

// worked examples, composite z-score included
NC(=O)[C@@]1(CCS(=O)(=O)c2ccccc2)N=C(c2ccc(OCCCO)cc2)O[C@H]1c1ccccc1	1.54
C=C[C@H](C)[C@H](O)c1ccc(OCCO)cc1	-0.647
CC[C@@H]1C=C(C(=O)O)[C@H](c2ccc(C(C)C)cc2)N1S(=O)(=O)c1ccc(C)cc1	1.53

Enquiry: Quick check: composite z-score of `COCCOC(=O)N1C(=O)[C@@]2(c3cc(C#Cc4ccc(OC)cc4)ccc31)[C@H](c1ccc(OCCO)cc1)N1[C@H](c3ccccc3)[C@H](c3ccccc3)OC(=O)[C@H]1[C@@H]2C(=O)N1CCc2cc(OC)c(OC)cc2C1` ?
Return: 1.56

Enquiry: Quick check: composite z-score of O=C1OCCC/C=C\[C@H]2OC34C=CCN(CCN5CCOCC5)C(=O)[C@H]3N(CCO)C(=O)[C@@H]4C12 (stereo partly drawn) ?
Return: -0.833

Enquiry: Quick check: composite z-score of CCCCCCCCCCC(O)C1C=CC2C(=O)N(c3ccccc3)C(=O)C2N1Nc1ccc([N+](=O)[O-])cc1 (stereo not drawn) ?
Return: 1.57

Enquiry: Quick check: composite z-score of `C=C[C@H](C)[C@H](OC(=O)Nc1ccc(OC)cc1)c1ccc(O)c2ccccc12` ?
Return: -0.0544

Enquiry: Quick check: composite z-score of `CCCCC(=C=CC[C@H](O)c1ccccc1OCCO)C[C@H](O)c1cc(Cl)cc(Cl)c1O` ?
Return: 1.1
